# maps each entry to its TGI
Tested on: IGROV1 ovarian
ASSAY INFO: NCI tumour cell line growth inhibition, 48 h
MEASURE NAME: TGI

MOLECULE: CS(=O)(=O)OCC1OC(n2ccc(NC(=O)c3ccccc3)nc2=O)CC1OS(C)(=O)=O (stereo not given)
TGT: IGROV1 ovarian
MEASURE NAME: TGI
OBSERVED RESULT: > 100 µM
--
MOLECULE: C#CCNC(=O)NCCCC(NC(C)=O)C(=O)NCc1ccccc1 (stereo not given)
TGT: IGROV1 ovarian
MEASURE NAME: TGI
OBSERVED RESULT: > 100 µM
--
MOLECULE: Nc1nc2sc3ccccc3c(=O)n2n1
TGT: IGROV1 ovarian
MEASURE NAME: TGI
OBSERVED RESULT: > 100 µM
--
MOLECULE: CC(C)C[C@H](NC(=O)[C@H](Cc1ccccc1)NC(=O)CCc1ccccc1)B(O)O
TGT: IGROV1 ovarian
MEASURE NAME: TGI
OBSERVED RESULT: < 0.01 µM
--
MOLECULE: COc1ccc(/C(Cl)=C(/c2ccc(O)cc2)c2ccc(OCCN(C)C)cc2)cc1
TGT: IGROV1 ovarian
MEASURE NAME: TGI
OBSERVED RESULT: 33.2 µM

----------
Test system: K-562 leukemia
ASSAY INFO: NCI tumour cell line growth inhibition, 48 h

MOLECULE: CN(c1cc2ncc(=O)[nH]c2cc1NC(N)=NCc1ccc(Cl)cc1)C1CCCCC1
UNITS SYMBOL: µM
VALUE COMPARATOR: =
TGI: 9.73
//
MOLECULE: O=[N+]([O-])c1ccccc1N=Nc1c(O)[nH]c2ccc(Br)cc12
UNITS SYMBOL: µM
VALUE COMPARATOR: >
TGI: 68.3
//
MOLECULE: Nc1ccccc1-c1ccc([N+](=O)[O-])cc1
UNITS SYMBOL: µM
VALUE COMPARATOR: >
TGI: 100
//
MOLECULE: CSc1cccc(-n2c3nc(=O)n(C)c(=O)c-3nc3ccccc32)c1
UNITS SYMBOL: µM
VALUE COMPARATOR: =
TGI: 32.5
//
MOLECULE: Cc1cc(Cl)cc2c(N=Nc3ccccc3[N+](=O)[O-])c(O)[nH]c12
UNITS SYMBOL: µM
VALUE COMPARATOR: >
TGI: 100
//
MOLECULE: CCCCCCCC(=O)NCC(O)CNC(=O)CCCCCCC
UNITS SYMBOL: µM
VALUE COMPARATOR: >
TGI: 100
//
MOLECULE: O=C1CCCC2C(O)CCC[C@H]12 (some centres not stated)
UNITS SYMBOL: µM
VALUE COMPARATOR: >
TGI: 100
//
MOLECULE: Clc1ccc(/C=C/c2cc(N3CCOCC3)c3cc(Cl)c(Cl)cc3n2)cc1
UNITS SYMBOL: µM
VALUE COMPARATOR: >
TGI: 100
//
MOLECULE: CN(C)Cc1cc(N=Nc2cccc(Cl)c2)ccc1O
UNITS SYMBOL: µM
VALUE COMPARATOR: =
TGI: 12.8
//
MOLECULE: C#CCN(Cc1nc2cc(C(F)(F)F)ccc2nc1-c1ccccc1)c1ccc(OC(F)(F)F)cc1
UNITS SYMBOL: µM
VALUE COMPARATOR: >
TGI: 100
//
MOLECULE: [Cl][Sn]([Cl])([c]1ccccc1)[c]1ccccc1
UNITS SYMBOL: µM
VALUE COMPARATOR: =
TGI: 12.3
//
MOLECULE: O=Cc1cc([N+](=O)[O-])no1
UNITS SYMBOL: µM
VALUE COMPARATOR: =
TGI: 38.6

----------
System: OVCAR-4 ovarian
ASSAY INFO: NCI tumour cell line growth inhibition, 48 h
# maps each entry to its TGI

MOLECULE: CSc1nc(NC2OCC(OC(C)=O)C(OC(C)=O)C2OC(C)=O)c(N=C(C)C(C)=O)c(=O)[nH]1 (stereo unspecified)
TGT: OVCAR-4 ovarian
VALUE COMPARATOR: >
TGI (µM): 100

MOLECULE: c1ccc(C2CC(c3cccc(Nc4ccncc4)c3)=NN2c2ccccc2)cc1 (stereo unspecified)
TGT: OVCAR-4 ovarian
VALUE COMPARATOR: =
TGI (µM): 3.43

MOLECULE: CC(=O)c1c(SCCN2CCCC2)n(-c2ccccc2)c(=S)n(-c2ccccc2)c1=O
TGT: OVCAR-4 ovarian
VALUE COMPARATOR: >
TGI (µM): 90.7

MOLECULE: O=c1[nH]c2ccc(Cl)cc2c2oc(-c3ccccc3)nc12
TGT: OVCAR-4 ovarian
VALUE COMPARATOR: =
TGI (µM): 35.4

MOLECULE: CCOc1ccccc1NC(=O)c1cc2ccccc2cc1O
TGT: OVCAR-4 ovarian
VALUE COMPARATOR: =
TGI (µM): 19.6

MOLECULE: Cc1n[nH]c(=O)n1C1CCCC1
TGT: OVCAR-4 ovarian
VALUE COMPARATOR: >
TGI (µM): 100

----------
Test system: UACC-257 melanoma
ASSAY INFO: NCI tumour cell line growth inhibition, 48 h
MEASURE NAME: TGI (µM)

MOLECULE: CC(C)CC[C@H](O)[C@@H](C)[C@H]1[C@@H](OC2OC(C)C(O)C(O)C2O)C[C@H]2[C@@H]3CC=C4C[C@@H](O)CC[C@]4(C)[C@H]3[C@@H](O)C[C@]12C (some centres undefined)
VALUE COMPARATOR: =
OBSERVED RESULT: 2.91

MOLECULE: O=C(Nc1ccc(F)cc1)Nc1ccccc1CNc1nc(Nc2ccc(OCCN3CCCC3)cc2)ncc1Cl
VALUE COMPARATOR: =
OBSERVED RESULT: 2.35

MOLECULE: CC1(Cl)CC2OC3(Br)C=CC(C)(O)C2(CC1Br)C3(C)C (centres undefined)
VALUE COMPARATOR: >
OBSERVED RESULT: 100

MOLECULE: O=C(c1ccco1)N(Cc1ccco1)C(=S)Nc1ccccc1
VALUE COMPARATOR: =
OBSERVED RESULT: 57.6

----------
Tested on: DLD-1 colon
ASSAY INFO: NCI tumour cell line growth inhibition, 48 h

MOLECULE: N#CCCN(c1ccc(/C=C2\N=C(Cc3ccccc3)OC2=O)cc1)S(=O)(=O)c1ccccc1
TGI: > 100 µM
--
MOLECULE: CCOc1ccc(NC(=O)C2=C(C)NC(C)=C(C(=O)Nc3ccc(OCC)cc3)C2c2ccc(O)c(OC)c2)cc1
TGI: > 100 µM
--
MOLECULE: CSc1nc(NC2OCC(OC(C)=O)C(OC(C)=O)C2OC(C)=O)c(N=C(C)C(C)=O)c(=O)[nH]1 (stereo not drawn)
TGI: > 100 µM

----------
Test system: UACC-62 melanoma
ASSAY INFO: NCI tumour cell line growth inhibition, 48 h

COMPOUND: CCOC(=O)N1C2C=C(C)C(ON2C(=O)c2ccccc2)C2C(C)C(=O)N21 (stereo not given)
TGI: > 100 µM
//
COMPOUND: CC1(C)/C(=N\O)C2(C#N)CCC1C2 (stereo not given)
TGI: > 100 µM
//
COMPOUND: CN(Cc1ccc(Cl)cc1)c1ccc(CO)c(Cl)c1
TGI: 2.2 µM
//
COMPOUND: CCOc1ccc(-c2cnnn2-c2nonc2-n2cccc2)cc1
TGI: > 60.3 µM
//
COMPOUND: Nc1nc(N)c(Cn2ccnc2)c(=O)[nH]1
TGI: > 100 µM

----------
Tested on: NCI-H226 lung
ASSAY INFO: NCI tumour cell line growth inhibition, 48 h

COMPOUND: c1ccc2c(c1)Nc1ccccc1[P+]21c2ccccc2Nc2ccccc21
TGI: 0.66 µM
--
COMPOUND: Nc1ccccc1-c1ccc([N+](=O)[O-])cc1
TGI: > 100 µM
--
COMPOUND: COc1cccc(C2C3=C(COC3=O)N(CCO)c3cc(OC)ccc32)c1 (configuration not stated)
TGI: 8.86 µM
--
COMPOUND: Cc1nc2ccc(Cl)cc2c2c1CCS2
TGI: > 100 µM
--
COMPOUND: CC1=NOC2(C1)C(=O)Nc1ccccc12 (configuration not stated)
TGI: > 100 µM
--
COMPOUND: CN(C)c1ccc(/C=C(\NC(=O)c2ccccc2)C(=O)NCC(=O)O)cc1
TGI: > 100 µM
--
COMPOUND: CC(=O)NNc1nc(C)c(C(/C=C/c2ccc([N+](=O)[O-])cc2)=N/N)s1
TGI: > 100 µM
--
COMPOUND: Nc1cc(C(=O)O)[nH]c(=O)n1
TGI: > 100 µM
--
COMPOUND: n1onc2c1NC1Nc3nonc3NC1N2 (configuration not stated)
TGI: > 100 µM
--
COMPOUND: COC(=O)C1=C(C)NC(C)=C(C(=O)OC)C1/C=C(\Cl)c1ccc(Cl)c(Cl)c1
TGI: 38.2 µM
--
COMPOUND: CC(C)(O)C#Cc1ccc(/C=C/C(=O)c2ccccc2)s1
TGI: 42.3 µM
--
COMPOUND: O=S(=O)(N/N=C/c1ccc(Cl)c(Cl)c1)c1ccccc1
TGI: > 100 µM
